Target Or Test System: T1, Recombinant His-tagged human CD36.ECD protein (Sino Biological) (human, UniProt P16671 30-439)
T1 construct: Bought protein; also called hCD36.ECD; hCD36; not shown: His tag
T1 sequence (P16671 30-439 limits assumed): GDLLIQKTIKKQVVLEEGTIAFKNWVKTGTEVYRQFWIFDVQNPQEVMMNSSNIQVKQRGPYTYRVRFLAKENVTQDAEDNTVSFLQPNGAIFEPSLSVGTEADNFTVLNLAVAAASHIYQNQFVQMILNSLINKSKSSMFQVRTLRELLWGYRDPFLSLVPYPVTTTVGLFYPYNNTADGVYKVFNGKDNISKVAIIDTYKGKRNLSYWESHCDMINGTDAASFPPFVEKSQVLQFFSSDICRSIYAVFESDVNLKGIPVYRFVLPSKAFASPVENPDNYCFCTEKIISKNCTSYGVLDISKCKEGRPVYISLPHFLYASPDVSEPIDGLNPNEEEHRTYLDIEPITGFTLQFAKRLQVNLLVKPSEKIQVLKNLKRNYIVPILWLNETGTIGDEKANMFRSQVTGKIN
Test Details: ELISA, coated human CD36.ECD (FIG. 2D)

Binder	EC50 [pM]
117_DA57D (antibody, V domains shown, full-length IgG, human kappa) VH: EVQLVESGGGLVQPGGSLRLSCAASGFTIDAFGIHWVRQAPGKGLEWVAWIAPYGGDTYYADSVKGRFTISADTSKNTAYLQMNSLRAEDTAVYYCARSFFGYFDYWGQGTLVTVSS VL: DIQMTQSPSSLSASVGDRVTITCRASQDVSNWVAWYQQKPGKAPKLLISYATSLYSGVPSRFSGSGSGTDFTLTISSLQPEDFATYYCQQHSNAPLTFGQGTKVEIKR	49
117_101A (antibody, V domains shown, full-length IgG, human kappa) VH: EVQLVESGGGLVQPGGSLRLSCAASGFTISSFGIHWVRQAPGKGLEWVAWIAPYGGYTYYADSVKGRFTISADTSKNTAYLQMNSLRAEDTAVYYCARSFAGYFDYWGQGTLVTVSS VL: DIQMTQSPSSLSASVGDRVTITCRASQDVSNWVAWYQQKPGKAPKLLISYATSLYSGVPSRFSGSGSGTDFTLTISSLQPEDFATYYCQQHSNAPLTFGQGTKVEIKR	75.1
